Assay System: PARS (Mus musculus)
Construct: endogenous in cells; host or cells: RAW mouse macrophages
Procedure Details: PARS activation in peroxynitrite-stimulated cultured RAW macrophages (whole-cell assay, 3H-NAD+ incorporation)
Format: cell-based
Experimental Conditions: 300 nM, cultured murine macrophages
Measured Property: inhibition at 0.3 µM (%)
Use % as the unit, but write only the number.

O=C(O)c1ccc2oc3c4ccccc4c(=O)[nH]c3c2c1 [Compound 22f] = 23
O=C(O)c1ccc2c(c1)oc1c3ccccc3c(=O)[nH]c21 [Compound 22g] = 23
COc1ccc2c(c1)oc1c3ccccc3c(=O)[nH]c21 [Compound 22c] = 66
CN(C)CCN(CCN(C)C)S(=O)(=O)c1ccc2c(c1)Cc1c-2[nH]c(=O)c2ccccc12 = 28

Under PARS (Mus musculus): inhibition at 0.3 µM value of Cc1ccc2oc3c4ccccc4c(=O)[nH]c3c2c1 [Compound 22e] ? 56

Under PARS (Mus musculus): inhibition at 0.3 µM value of `CCN(CC)CCN(CCN(CC)CC)S(=O)(=O)c1ccc2c(c1)Cc1c-2[nH]c(=O)c2ccccc12` ? 45

Under PARS (Mus musculus): inhibition at 0.3 µM value of O=c1[nH]c2c3cccc(O)c3oc2c2ccccc12 [Compound 23c] ? 66

---

Assay System: PARS (Mus musculus, UniProt P11103)
Construct: endogenous in cells; host or cells: RAW mouse macrophages
Sequence (P11103 whole entry): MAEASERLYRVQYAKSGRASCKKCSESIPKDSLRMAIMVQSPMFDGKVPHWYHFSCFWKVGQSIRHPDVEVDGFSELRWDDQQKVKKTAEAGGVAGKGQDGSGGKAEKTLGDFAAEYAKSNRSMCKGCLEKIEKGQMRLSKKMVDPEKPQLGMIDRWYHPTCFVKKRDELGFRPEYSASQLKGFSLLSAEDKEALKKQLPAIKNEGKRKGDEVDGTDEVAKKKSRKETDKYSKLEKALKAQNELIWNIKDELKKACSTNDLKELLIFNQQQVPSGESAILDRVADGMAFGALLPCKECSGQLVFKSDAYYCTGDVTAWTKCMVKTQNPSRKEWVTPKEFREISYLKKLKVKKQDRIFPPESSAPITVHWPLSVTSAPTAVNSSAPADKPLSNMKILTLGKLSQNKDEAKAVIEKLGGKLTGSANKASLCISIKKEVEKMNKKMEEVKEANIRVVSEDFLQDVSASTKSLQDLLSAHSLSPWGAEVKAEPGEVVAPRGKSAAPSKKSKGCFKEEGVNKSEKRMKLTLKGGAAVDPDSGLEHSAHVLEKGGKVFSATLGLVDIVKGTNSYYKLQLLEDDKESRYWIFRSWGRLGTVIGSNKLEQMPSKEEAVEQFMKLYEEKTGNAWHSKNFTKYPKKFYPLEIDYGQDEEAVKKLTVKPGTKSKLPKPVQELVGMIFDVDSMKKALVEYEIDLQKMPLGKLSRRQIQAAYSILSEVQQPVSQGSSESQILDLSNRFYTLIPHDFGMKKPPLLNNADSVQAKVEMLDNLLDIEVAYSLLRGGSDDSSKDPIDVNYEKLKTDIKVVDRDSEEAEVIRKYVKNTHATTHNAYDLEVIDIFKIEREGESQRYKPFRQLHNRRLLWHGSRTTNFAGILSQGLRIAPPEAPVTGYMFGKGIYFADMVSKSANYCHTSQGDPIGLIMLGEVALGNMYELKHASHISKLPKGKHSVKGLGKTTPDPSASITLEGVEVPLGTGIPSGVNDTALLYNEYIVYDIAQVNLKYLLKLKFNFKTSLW
Procedure Details: PARS activation in peroxynitrite-stimulated cultured RAW macrophages (whole-cell assay, 3H-NAD+ incorporation)
Format: cell-based
Experimental Conditions: 100 nM, cultured murine macrophages
Measured Property: inhibition at 0.1 µM (%)
Use % as the unit, but write only the number.

Solved cases below.
CN(C)CCN(CCN(C)C)S(=O)(=O)c1ccc2c(c1)Cc1c-2[nH]c(=O)c2ccccc12 = 20
O=c1[nH]c2c3ccccc3oc2c2ccccc12 [Compound 22a] = 51
CCN(CC)CCN(CCN(CC)CC)S(=O)(=O)c1ccc2c(c1)Cc1c-2[nH]c(=O)c2ccccc12 = 27

Consider the compound O=c1[nH]c2c3cccc(O)c3oc2c2ccccc12 [Compound 23c] and give its measured inhibition at 0.1 µM. 63

Consider the compound COc1ccc2c(c1)oc1c3ccccc3c(=O)[nH]c21 [Compound 22c] and give its measured inhibition at 0.1 µM. 62

Consider the compound Cc1ccc2oc3c4ccccc4c(=O)[nH]c3c2c1 [Compound 22e] and give its measured inhibition at 0.1 µM. 38

---

Assay System: PARS (Mus musculus)
Construct: endogenous in cells; host or cells: RAW mouse macrophages
Procedure Details: PARS activation in peroxynitrite-stimulated cultured RAW macrophages (whole-cell assay, 3H-NAD+ incorporation)
Format: cell-based
Experimental Conditions: 1 μM, cultured murine macrophages
Parameter threshold = 50%. Response is T when inhibition at 1 µM meets or exceeds it, else F.

O=c1[nH]c2c3cccc(O)c3oc2c2ccccc12 [Compound 23c] = T
O=C(O)c1ccc2oc3c4ccccc4c(=O)[nH]c3c2c1 [Compound 22f] = F
Cc1ccc2oc3c4ccccc4c(=O)[nH]c3c2c1 [Compound 22e] = T
COc1ccc2c(c1)oc1c3ccccc3c(=O)[nH]c21 [Compound 22c] = T
O=c1[nH]c2c3ccccc3oc2c2ccccc12 [Compound 22a] = T

Query compound follows.
Could you verify whether the entry O=C(O)c1ccc2c(c1)oc1c3ccccc3c(=O)[nH]c21 [Compound 22g] shows inhibition at 1 µM of no less than 50%? F
